Provide the recorded pIC50 for the entries that follow.
System: KRAS G12V dependent lung adenocarcinoma cell line, NCI-H441
assay-protocol: Cellular pERK (Thr202/Tyr204) FRET/HTRF assay
Type: cell-based
conditions-used: Homo sapiens, NCI-H441, cellular pERK (Thr202/Tyr204) HTRF, NCI-H441 cells
pIC50: −log10 of the molar value.

What does the data say about its pIC50? Entry: C#Cc1c(F)ccc2cc(N)cc(-c3ncc4c(N5CCOC[C@H]6[C@H](F)[C@H]65)nc(OC[C@]56C[C@@]7(CN5CCC65CC5)CC7(F)F)nc4c3F)c12 (single isomer, unassigned)
> 7.30

Also, `[2H]C1([2H])OCCN(c2nc(OC([2H])([2H])[C@@]34CCCN3C[C@H](F)C4)nc3c(F)c(-c4cccc5ccc(F)c(C#C)c45)ncc23)[C@@H]2[C@@H](F)[C@@H]21` please.
> 7.30

Can you check `[2H]C([2H])(Oc1nc(N2CCOC[C@H]3[C@H](F)[C@H]32)c2cc(F)c(-c3cc(N)cc(C)c3C(F)(F)F)c(F)c2n1)[C@@]12CCCN1C[C@H](F)C2` next?
5.00 to 6.30

// query: `[2H]C([2H])(Oc1nc(N2CCC(=O)C[C@H]3[C@H](F)[C@H]32)c2cnc(-c3cc(N)cc4cc(F)c(F)c(C#C)c34)c(F)c2n1)[C@@]12CCCN1C[C@H](F)C2`
> 7.30

And `Nc1cc(Cl)c(C(F)(F)F)c(-c2ncc3c(N4CCCC[C@H]5[C@H](F)[C@H]54)nc(OC[C@]45C/C(=C/F)CN4CCC54CC4)nc3c2F)c1` ?
> 7.30

----------
Kindly state IC50 for each of the entries shown.
System: KRAS G12V dependent lung adenocarcinoma cell line, NCI-H441
assay-protocol: Cellular pERK (Thr202/Tyr204) FRET/HTRF assay
Assay type: cell-based
conditions-used: Homo sapiens, NCI-H441, pERK HTRF, NCI-H441 cells (KRAS G12V)

Test system KRAS G12V dependent lung adenocarcinoma cell line, NCI-H441; read-out IC50; what value for [2H]C([2H])(Oc1nc(N2CCCO[C@H]3C(F)[C@H]32)c2cnc(-c3cc(N)cc4ccc(F)c(C#C)c34)c(F)c2n1)[C@@]12CCCN1C[C@H](F)C2 (stereo in doubt) ?
< 50 nM

Now consider `[2H]C([2H])([2H])Oc1c(F)c(F)cc2cc(N)cc(-c3ncc4c(N5CCCO[C@H]6[C@H](F)[C@H]65)nc(OC([2H])([2H])[C@@]56CCCN5C[C@H](F)C6)nc4c3F)c12` and answer again.
< 50 nM

Consider next the compound `[2H]C([2H])([2H])Oc1c(F)c(F)c(F)c2cc(N)cc(-c3ncc4c(N5CCOC[C@H]6[C@H](F)[C@H]65)nc(OC([2H])([2H])[C@@]56CCCN5C[C@H](F)C6)nc4c3F)c12` in the same way.
< 50 nM

// same read-out, input: `[2H]C([2H])(Oc1nc(N2CCC[C@H]3[C@H](F)[C@H]32)c2cnc(-c3cc(N)cc4cc(F)c(F)c(C#C)c34)c(F)c2n1)[C@@]12CCCN1C[C@H](F)C2`
< 50 nM

Try `[2H]C([2H])(Oc1nc(N2CCCO[C@H]3C[C@H]32)c2c(OC)nc(-c3cc(N)cc4cc(F)c(F)c(C#C)c34)c(F)c2n1)[C@@]12CCCN1C[C@H](F)C2` next.
< 50 nM

One more compound: `[2H]C([2H])(Oc1nc(N2CCCCC[C@H]3C[C@H]32)c2cnc(-c3cc(N)cc4cc(F)c(F)c(C#C)c34)c(F)c2n1)[C@@]12CCCN1C[C@H](F)C2`
< 50 nM

Input `[2H]C([2H])(Oc1nc(N2CCC[C@H]3[C@@H](F)[C@H]32)c2cnc(-c3cc(N)cc4cc(F)c(F)c(C#C)c34)c(F)c2n1)[C@@]12CCCN1C[C@H](F)C2`
500 to 10000 nM

// repeat for `[2H]C([2H])([2H])Oc1c(F)c(F)c(F)c2cc(N)cc(-c3ncc4c(N5CCCC[C@H]6[C@H](F)[C@H]65)nc(OC([2H])([2H])[C@@]56CCCN5C[C@H](F)C6)nc4c3F)c12` and report
< 50 nM

Then this compound: `[2H]C([2H])(F)Oc1c(F)ccc2cccc(-c3ncc4c(N5CCCC[C@H]6[C@H](F)[C@H]65)nc(OC([2H])([2H])[C@@]56CCCN5C[C@H](F)C6)nc4c3F)c12`
< 50 nM

Entry to check: `[2H]C([2H])(Oc1nc(N2CCO[C@@H]3[C@@H](F)[C@@H]32)c2cnc(-c3cc(N)cc4cc(F)c(F)c(C#C)c34)c(F)c2n1)[C@@]12CCCN1C[C@H](F)C2`
50 to 500 nM

----------
Provide the reported IC50 of each item.
experimental-system: KRAS (G12D)/CRAF (Homo sapiens (Human), UniProt P01116, G12D)
Sequence (P01116-2 other isoform, or with tags, fused parts or gaps G12D): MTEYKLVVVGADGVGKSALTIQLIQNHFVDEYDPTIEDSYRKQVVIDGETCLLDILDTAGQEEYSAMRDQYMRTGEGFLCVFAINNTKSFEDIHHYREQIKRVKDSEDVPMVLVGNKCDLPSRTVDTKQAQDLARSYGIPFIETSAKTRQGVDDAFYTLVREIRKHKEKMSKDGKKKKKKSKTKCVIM
assay-protocol: TR-FRET biochemical KRAS:CRAF protein:protein interaction assay, KRAS (G12D)
conditions-used: GMPPNP loaded Biotin-KRAS (G12D), FLAG CRAF RBD; read-out: TR-Fret_PPI KRAS (G12D)/CRAF IC50
# unit: µM | format: bare number

Look up IC50 for this molecule: `[2H]C([2H])(Oc1nc(N2CCOC[C@H]3[C@@H](Cl)[C@H]32)c2cnc(-c3cc(N)cc4ccc(F)c(C#C)c34)c(F)c2n1)[C@@]12CCCN1C[C@H](F)C2`
1.39

Please give the result for `[2H]C([2H])(Oc1nc(N2CCCC[C@@H]3[C@H](Cl)[C@@H]32)c2cnc(-c3cc(N)cc4ccc(F)c(C#C)c34)c(F)c2n1)[C@@]12CCCN1C[C@H](F)C2` too.
3

----------
experimental-system: KRAS (G12V)/CRAF (Homo sapiens (Human), UniProt P01116, G12V)
Sequence (P01116-2 other isoform, or with tags, fused parts or gaps G12V): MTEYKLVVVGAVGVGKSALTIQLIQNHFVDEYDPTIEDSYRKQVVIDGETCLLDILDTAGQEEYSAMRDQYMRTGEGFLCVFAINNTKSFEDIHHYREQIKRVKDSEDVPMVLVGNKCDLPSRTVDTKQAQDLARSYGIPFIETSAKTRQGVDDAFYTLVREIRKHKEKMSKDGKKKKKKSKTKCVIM
assay-protocol: TR-FRET biochemical KRAS:CRAF protein:protein interaction assay, KRAS (G12V)
conditions-used: GMPPNP loaded Biotin-KRAS (G12V), FLAG CRAF RBD; read-out: TR-Fret_PPI KRAS (G12V)/CRAF IC50
measurement-kind: IC50 (µM)
Quick note: give the figure in µM, leave out the unit.

Param readout = IC50; param system = KRAS (G12V)/CRAF (Homo sapiens (Human), UniProt P01116, G12V); param query = `[2H]C([2H])(Oc1nc(N2CCOC[C@H]3[C@H](F)[C@H]32)c2cnc(-c3cc(N)cc4ccc(F)c(C#C)c34)c(F)c2n1)[C@@]12CCCN1C[C@H](F)C2` ; response: value
0.06

Now try `[2H]C([2H])(Oc1nc(N2CCCC[C@H]3[C@H](F)[C@H]32)c2cnc(-c3cc(N)cc4ccc(F)c(C#C)c34)c(F)c2n1)[C@@]12CCCN1C[C@H](F)C2` .
0.0392

Please give the result for `[2H]C([2H])(Oc1nc(N2CCCO[C@H]3[C@H](Cl)[C@H]32)c2cnc(-c3cc(N)cc4ccc(F)c(C#C)c34)c(F)c2n1)[C@@]12CCCN1C[C@H](F)C2` too.
0.0512

Likewise for `[2H]C([2H])(Oc1nc(N2CCOC[C@@H]3[C@@H](Cl)[C@@H]32)c2cnc(-c3cc(N)cc4ccc(F)c(C#C)c34)c(F)c2n1)[C@@]12CCCN1C[C@H](F)C2` ?
3

Moving on to the next compound: `[2H]C([2H])(Oc1nc(N2CCOC[C@@H]3[C@@H](F)[C@@H]32)c2c(OC)nc(-c3cc(N)cc4ccc(F)c(C#C)c34)c(F)c2n1)[C@@]12CCCN1C[C@H](F)C2`
3

And for `[2H]C([2H])(Oc1nc(N2CCCC[C@H]3[C@H](Cl)[C@H]32)c2cnc(-c3cc(N)cc4ccc(F)c(C#C)c34)c(F)c2n1)[C@@]12CCCN1C[C@H](F)C2` ?
0.0547

Another compound to check: `[2H]C([2H])(Oc1nc(N2CCCO[C@@H]3[C@@H](Cl)[C@@H]32)c2cnc(-c3cc(N)cc4ccc(F)c(C#C)c34)c(F)c2n1)[C@@]12CCCN1C[C@H](F)C2`
3

----------
Test system: KRAS G12V dependent lung adenocarcinoma cell line, NCI-H441
assay-protocol: Cellular pERK (Thr202/Tyr204) FRET/HTRF assay
Format: cell-based
conditions-used: Homo sapiens, NCI-H441, cellular pERK (Thr202/Tyr204) HTRF, NCI-H441 cells
Provide the recorded IC50 for the entries that follow.

What IC50 value was documented for this compound, [2H]C([2H])(F)Oc1c(F)c(F)cc2cc(N)cc(-c3ncc4c(N5CCOC[C@H]6[C@H](F)[C@H]65)nc(OC[C@@]56CCCN5CC(=C)C6)nc4c3F)c12 [Example 144] ?
< 50 nM

Next up: [2H]C([2H])(Oc1nc(N2CCOC[C@H]3[C@H](F)[C@H]32)c2cnc(-c3cncc4ccc(F)c(C#C)c34)c(F)c2n1)[C@@]12CCCN1C[C@H](F)C2 [Example 114]
< 50 nM

Proceed to [2H]C([2H])(Oc1nc(N2CCOC[C@H]3[C@H](F)[C@H]32)c2c(Cl)nc(-c3cc(N)cc4ccc(F)c(C#C)c34)c(F)c2n1)[C@@]12CCCN1C[C@H](F)C2 [Example 291]
< 50 nM

Another compound to look at: C#Cc1c(F)ccc2cc(N)cc(-c3ncc4c(N5CCOC[C@H]6[C@H](F)[C@H]65)nc(OC[C@@]56CC7(CC7)CN5CCC65CC5)nc4c3F)c12 [Example 207]
< 50 nM

Another compound to look at: C#Cc1c(F)ccc2cccc(-c3ncc4c(N5CCOC[C@H]6[C@H](F)[C@H]65)nc(OC[C@]56C/C(=C\F)CN5CCC65CC5)nc4c3F)c12 [Example 375]
< 50 nM

Query Cc1c(F)c(N)cc(-c2ncc3c(N4CCCC[C@@H]5[C@@H](F)[C@@H]54)nc(OC[C@@]45CCCN4CC(=C(F)F)C5)nc3c2F)c1C(F)(F)F [Example 395] next
500 to 10000 nM

Lookup [2H]C([2H])([2H])Oc1c(F)c(F)c(F)c2cc(N)cc(-c3ncc4c(N5CCOC[C@H]6[C@H](F)[C@H]65)nc(OC[C@@]56CCCN5CC(=C(F)F)C6)nc4c3F)c12 [Example 142]
< 50 nM

Also [2H]C([2H])(Oc1nc(N2CCOC[C@H]3[C@H](F)[C@H]32)c2cnc(-c3cc(N)cc(Cl)c3C(F)(F)F)c(F)c2n1)[C@@]12CCCN1C[C@H](F)C2 [Example 272] , if possible.
< 50 nM

Continue with [2H]C([2H])([2H])Oc1c(F)c(F)c(F)c2cc(N)cc(-c3ncc4c(N5CCOC[C@H]6[C@H](F)[C@H]65)nc(OC[C@@]56CCCN5CC(=C)C6)nc4c3F)c12 [Example 125]
< 50 nM

Then [2H]C([2H])(Oc1nc(N2CCOC[C@H]3[C@H](F)[C@H]32)c2c(O)nc(-c3cc(N)cc4ccc(F)c(C#C)c34)c(F)c2n1)[C@@]12CCCN1C[C@H](F)C2 [Example 401] ?
500 to 10000 nM
